SYSTEM UNDER TEST: ZCCHC8 core (NEXT subunit);RBM7 core (NEXT subunit);MTR4 (human;human;human, UniProt Q6NZY4;Q9Y580;P42285 1-415+508-707;6-86;1-1042, internal_change||)
EXPERIMENT DESCRIPTION: EMSA
MEASURED ATTRIBUTE: pKd
By convention, pKd is the negative base-10 log of a molar concentration.

Incoming: Identify the reported pKd for the following entry. 3' A5U5A10-tailed RNA duplex (dsRNA) RNA 1: AGUGCGCUGUAUCUUCAAGGCCACU RNA 2: AGUGGCCUUGAAGAUACAGCGCACUAAAAAUUUUUAAAAAAAAAA
Outgoing: 7.38
